Source of measurements: the supplement of paper PMC10567573

B1: S100A14 (parent)
chain: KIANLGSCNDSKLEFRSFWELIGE

Variants of: B1
test protocol: protein stability index of a GFP-peptide fusion (GPS, HEK-293T) (PSI 1-6); higher = more stable;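 also: lentivirally expressed fusions sorted by FACS into six bins by GFP to DsRed ratio, PSI derived from sequencing read proportions per bin multiplied by bin number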
assay setup: c terminus: a fixed tail appended
quantity kind: protein stability index
// no unit string in output, number only

Data request: Quickly give me recorded protein stability index for `R16T`
Data returned: 1.61

Data request: Quickly give me recorded protein stability index for `N4I`
Data returned: 1.9

Data request: Quickly give me recorded protein stability index for `C8M`
Data returned: 1.51

Data request: Quickly give me recorded protein stability index for `L21T`
Data returned: 2

Data request: Quickly give me recorded protein stability index for `C8H`
Data returned: 1.22

Data request: Quickly give me recorded protein stability index for `S17G`
Data returned: 1.33

Data request: Quickly give me recorded protein stability index for `E14L`
Data returned: 2.08

Data request: Quickly give me recorded protein stability index for `A3C`
Data returned: 1.62

Data request: Quickly give me recorded protein stability index for `F15H`
Data returned: 2.14

Data request: Quickly give me recorded protein stability index for `G6S`
Data returned: 2.1

Data request: Quickly give me recorded protein stability index for `N4H`
Data returned: 2.71

Data request: Quickly give me recorded protein stability index for `E14I`
Data returned: 2.54

Data request: Quickly give me recorded protein stability index for `A3L`
Data returned: 1.09

Data request: Quickly give me recorded protein stability index for `L5E`
Data returned: 2.74

Data request: Quickly give me recorded protein stability index for `R16A`
Data returned: 1.28

Data request: Quickly give me recorded protein stability index for `E20H`
Data returned: 2.15

Data request: Quickly give me recorded protein stability index for `D10H`
Data returned: 2.31

Data request: Quickly give me recorded protein stability index for `S17L`
Data returned: 2.86

Data request: Quickly give me recorded protein stability index for `F18V`
Data returned: 1.52

Data request: Quickly give me recorded protein stability index for `A3T`
Data returned: 1.65

Data request: Quickly give me recorded protein stability index for `D10W`
Data returned: 3.28

Data request: Quickly give me recorded protein stability index for `W19G`
Data returned: 2.68

Data request: Quickly give me recorded protein stability index for `S17I`
Data returned: 2.45

Data request: Quickly give me recorded protein stability index for `W19V`
Data returned: 3.86

Data request: Quickly give me recorded protein stability index for `L5D`
Data returned: 2.67

Data request: Quickly give me recorded protein stability index for `S11P`
Data returned: 2.81

Data request: Quickly give me recorded protein stability index for `C8L`
Data returned: 1.49

Data request: Quickly give me recorded protein stability index for `E20I`
Data returned: 2.29

Data request: Quickly give me recorded protein stability index for `A3I`
Data returned: 1.74

Data request: Quickly give me recorded protein stability index for `K12W`
Data returned: 2.47

Data request: Quickly give me recorded protein stability index for `D10Y`
Data returned: 1.63

Data request: Quickly give me recorded protein stability index for `D10K`
Data returned: 1.98

Data request: Quickly give me recorded protein stability index for `D10S`
Data returned: 2.4

Data request: Quickly give me recorded protein stability index for `E14C`
Data returned: 1.48

Data request: Quickly give me recorded protein stability index for `C8V`
Data returned: 2.08

Data request: Quickly give me recorded protein stability index for `L21E`
Data returned: 2.08

Data request: Quickly give me recorded protein stability index for `F18G`
Data returned: 2.43

Data request: Quickly give me recorded protein stability index for `I2H`
Data returned: 2.31

Data request: Quickly give me recorded protein stability index for `L5H`
Data returned: 1.88

Data request: Quickly give me recorded protein stability index for `E20K`
Data returned: 2.22

Data request: Quickly give me recorded protein stability index for `K1T`
Data returned: 2.13

Data request: Quickly give me recorded protein stability index for `W19R`
Data returned: 2.09

Data request: Quickly give me recorded protein stability index for `D10F`
Data returned: 1.92

Data request: Quickly give me recorded protein stability index for `K1P`
Data returned: 1.95

Data request: Quickly give me recorded protein stability index for `S7R`
Data returned: 2.03

Data request: Quickly give me recorded protein stability index for `K12E`
Data returned: 3.21

Data request: Quickly give me recorded protein stability index for `F15I`
Data returned: 2.24

Data request: Quickly give me recorded protein stability index for `L5Y`
Data returned: 1.53

Data request: Quickly give me recorded protein stability index for `G23V`
Data returned: 2.18

Data request: Quickly give me recorded protein stability index for `F15L`
Data returned: 1.06

Data request: Quickly give me recorded protein stability index for `R16H`
Data returned: 2.77

Data request: Quickly give me recorded protein stability index for `E20F`
Data returned: 2.77

Data request: Quickly give me recorded protein stability index for `I2S`
Data returned: 2.9

Data request: Quickly give me recorded protein stability index for `I22D`
Data returned: 2.65

Data request: Quickly give me recorded protein stability index for `L13Y`
Data returned: 2.12

Data request: Quickly give me recorded protein stability index for `K12Y`
Data returned: 3

Data request: Quickly give me recorded protein stability index for `E24S`
Data returned: 1.78

Data request: Quickly give me recorded protein stability index for `S7H`
Data returned: 2.25

Data request: Quickly give me recorded protein stability index for `I2K`
Data returned: 1.54

Data request: Quickly give me recorded protein stability index for `S17M`
Data returned: 1.29

Data request: Quickly give me recorded protein stability index for `E20C`
Data returned: 2.79

Data request: Quickly give me recorded protein stability index for `F15V`
Data returned: 2.56

Data request: Quickly give me recorded protein stability index for `L5V`
Data returned: 2.09

Data request: Quickly give me recorded protein stability index for `S11N`
Data returned: 2.21

Data request: Quickly give me recorded protein stability index for `I2P`
Data returned: 2.12

Data request: Quickly give me recorded protein stability index for `N4F`
Data returned: 2.7

Data request: Quickly give me recorded protein stability index for `E24G`
Data returned: 1.36

Data request: Quickly give me recorded protein stability index for `S17E`
Data returned: 1.87

Data request: Quickly give me recorded protein stability index for `R16N`
Data returned: 2.13

Data request: Quickly give me recorded protein stability index for `S17A`
Data returned: 3.38

Data request: Quickly give me recorded protein stability index for `N9P`
Data returned: 1.98

Data request: Quickly give me recorded protein stability index for `E14W`
Data returned: 1.08

Data request: Quickly give me recorded protein stability index for `D10Q`
Data returned: 1.7
